target.of.assay: T1, human CD79b recombinant protein (human, UniProt P40259 29-159)
T1 construct: also called human CD79b ECD antigen; recombinant human CD79b ECD
T1 sequence: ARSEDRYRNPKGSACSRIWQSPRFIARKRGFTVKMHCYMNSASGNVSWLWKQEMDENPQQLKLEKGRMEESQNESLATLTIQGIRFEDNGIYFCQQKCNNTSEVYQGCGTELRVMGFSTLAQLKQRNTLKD
assay.method.text: BLI; antibody at 10 ug/ml captured on anti-human IgG Fc probes, hCD79b in solution; same value printed in the rows for 18.3 and 9.14 nM hCD79b
measured.quantity: kon (M⁻¹ s⁻¹)
Numeric answer only, unit M⁻¹ s⁻¹ assumed.

Sample answers from the record:
- binder: "ch23D8 (antibody, human IgG1, kappa, V domains shown, Rabbit/human chimeric IgG1 kappa; also called chimeric 23D8) VH: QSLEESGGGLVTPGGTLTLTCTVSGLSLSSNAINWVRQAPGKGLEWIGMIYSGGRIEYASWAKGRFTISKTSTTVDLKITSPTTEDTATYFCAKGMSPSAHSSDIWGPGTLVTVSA VL: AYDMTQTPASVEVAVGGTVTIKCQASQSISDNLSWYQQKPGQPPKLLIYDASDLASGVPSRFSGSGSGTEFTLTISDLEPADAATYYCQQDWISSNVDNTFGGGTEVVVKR"
  unit.info: "M⁻¹ s⁻¹"
  kon: 245000
- binder: "ch57B9 (antibody, human IgG1, kappa, V domains shown, Rabbit/human chimeric IgG1 kappa; also called chimeric 57B9) VH: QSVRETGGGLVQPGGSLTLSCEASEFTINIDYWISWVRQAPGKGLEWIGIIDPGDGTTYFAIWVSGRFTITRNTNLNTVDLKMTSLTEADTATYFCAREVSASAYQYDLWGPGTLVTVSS VL: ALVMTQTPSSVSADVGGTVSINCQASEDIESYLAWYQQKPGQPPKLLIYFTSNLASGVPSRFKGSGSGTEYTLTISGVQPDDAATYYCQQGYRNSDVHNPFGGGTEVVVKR"
  unit.info: "M⁻¹ s⁻¹"
  kon: 368000
- binder: "ch22D10 (antibody, human IgG1, kappa, V domains shown, Rabbit/human chimeric IgG1 kappa; also called chimeric 22D10) VH: QSVEESGGRLVTPGTPLTLTCTASGFTINDYHMNWVRQAPGKGLEWIGIISSNGDTYYASWAKGRFTISRTSTTVDLKMTSLTTEDTATYFCARDDRDRSYAFDPWGPGTLVTVSS VL: ALVMTQTPSSVSAAVGGTVTINCRASEDIERYLAWYQQKPGQRPKLLIYGASTLASGVPSRFKGSGSGTEYTLTISGVQPDDAATYYCHQGDSSRNVVNVFGGGTEVVVKR"
  unit.info: "M⁻¹ s⁻¹"
  kon: 338000
- binder: "ch48H10 (antibody, human IgG1, kappa, V domains shown, Rabbit/human chimeric IgG1 kappa; also called chimeric 48H10) VH: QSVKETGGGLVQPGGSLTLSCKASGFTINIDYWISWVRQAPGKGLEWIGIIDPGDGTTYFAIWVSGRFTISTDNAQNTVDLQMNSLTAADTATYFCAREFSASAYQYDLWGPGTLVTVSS VL: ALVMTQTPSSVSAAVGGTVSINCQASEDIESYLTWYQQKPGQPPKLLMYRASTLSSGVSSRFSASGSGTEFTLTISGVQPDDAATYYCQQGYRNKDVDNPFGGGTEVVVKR"
  unit.info: "M⁻¹ s⁻¹"
  kon: 346000

[ask] For the binder ch29C3 (antibody, human IgG1, kappa, V domains shown, Rabbit/human chimeric IgG1 kappa; also called chimeric 29C3) VH: QSVKESGGGLFKPTDTLTLTCTVSGIDLNNYAMNWVRQAPGKGLDWIGLIGASGSTYYADWAKGRFTISKTSTTVDLKMTSLTTEDTATYFCAIGISATAHTSNIWGPGTLVAVSL VL: ALVMTQTPSSVSAAVGGTVTINCQASQNIDSNLAWYQQKPGQPPKLLIYDASALASGVPSRFKGSGSGTEYTLTISGVEPDDAATYYCQQDDSSSNVDNPFGGGTEVVVKR , what kon is on record?
[reply] 353000

Hey, just so you know, these numbers are from patent US20260209346A1.
